Recorded values, source paper PMC8041284.

# System Tested: BTK (Homo sapiens)
# Sequence (Q06187 402-655 limits assumed): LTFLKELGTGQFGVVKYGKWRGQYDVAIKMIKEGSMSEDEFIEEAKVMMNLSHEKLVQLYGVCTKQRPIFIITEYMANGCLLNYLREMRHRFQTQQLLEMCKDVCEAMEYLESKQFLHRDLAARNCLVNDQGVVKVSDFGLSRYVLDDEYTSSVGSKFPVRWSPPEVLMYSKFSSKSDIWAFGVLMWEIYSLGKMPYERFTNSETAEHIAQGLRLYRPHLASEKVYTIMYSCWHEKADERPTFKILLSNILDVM
# Assay Comment: biochemical
# Measurement Setup: read-out: BTK inhibition (%), 0.75 uM BTK, […] probe 3l, 15 min preincubation
Listed here are compounds together with their documented inhibition at 10 µM.
Express it in %; write the number only.

Example cases with answers are listed next.
CC(C)=CCC[C@](C)(O[C@@H]1O[C@H](CO)[C@@H](O)[C@H](O)[C@H]1O)[C@H]1CC[C@]2(C)[C@@H]1[C@H](O)C[C@@H]1[C@@]3(C)CC[C@H](O)C(C)(C)[C@@H]3[C@@H](O)C[C@]12C | -11.6
CC1=CC[C@@H](C(C)(C)O)CC1 | -20.8

Next:
INPUT: Send back BTK (Homo sapiens) inhibition at 10 µM of `Nc1nc2c(ncn2COCCO)c(=O)[nH]1` only.
OUTPUT: -15.6
